Entry source: the supplement of paper PMC10567573

B1: CDC25A (parent)
chain: TVAGKHQDLKYISPEIMASVLNGK

- Variants of: B1
- test_summary: protein stability index of a GFP-peptide fusion (GPS, HEK-293T) (PSI 1-6); higher = more stable;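 note: lentivirally expressed fusions sorted by FACS into six bins by GFP to DsRed ratio, PSI derived from sequencing read proportions per bin multiplied by bin number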
- conditions: c terminus: a fixed tail appended
Decision: protein stability index >= 3 yields Y, all other cases yield N.

stdin: Decide: protein stability index of `G4E` >= 3?
stdout: Y

stdin: Try this variant too: `I16W`
stdout: N

stdin: Also `K24T` , if possible.
stdout: N

stdin: Next variant up: `K24A`
stdout: N

stdin: Query `Q7S` next
stdout: Y

stdin: How about this variant: `P14D`
stdout: Y

stdin: # iterate: `K24C`
stdout: N

stdin: Cool, now `G4R`
stdout: Y

stdin: Can you handle `V2S` next?
stdout: Y

stdin: Param item: `S19L`
stdout: N

stdin: Same question for `S19F` please.
stdout: N

stdin: Also check `M17I`
stdout: N

stdin: Same question for `D8C` please.
stdout: N

stdin: Try `D8W` next.
stdout: N

stdin: Another variant to look at: `I16C`
stdout: Y

stdin: How about `K5S` ?
stdout: Y

stdin: Next: `K5D`
stdout: Y

stdin: Then `A3N` ?
stdout: N

stdin: Item: `E15Y`
stdout: N

stdin: Another variant to look at: `K24F`
stdout: N

stdin: Now try `Q7C` .
stdout: N

stdin: Now give it for `G23V` too.
stdout: N

stdin: Lookup `L9C`
stdout: Y

stdin: Input `M17H`
stdout: Y

stdin: Then what about the variant `S13W` ?
stdout: N

stdin: `E15Q` ?
stdout: N

stdin: Thanks! And `L9T` ?
stdout: Y

stdin: Continue with `I12P`
stdout: Y

stdin: Now consider `T1K` and answer again.
stdout: Y

stdin: Repeat with `L21V`
stdout: Y

stdin: Another variant to check: `S13E`
stdout: Y

stdin: Also need `A18E` , thanks.
stdout: Y

stdin: Same question, `K10T` this time
stdout: Y

stdin: Next: `K10P`
stdout: Y

stdin: Here is the next variant: `T1F`
stdout: N

stdin: Same thing, different variant: `D8R`
stdout: N

stdin: Ok, now `E15F`
stdout: N

stdin: Likewise for `S13K` ?
stdout: Y

stdin: For `S19Y` then?
stdout: N

stdin: Do the same for `T1D` please
stdout: Y

stdin: Next up: `D8V`
stdout: N

stdin: Same read-out for `I16G` ?
stdout: Y

stdin: `Q7E` , same question.
stdout: Y

stdin: Next up: `G4V`
stdout: Y

stdin: Next variant: `S19Q`
stdout: Y

stdin: How about `I12W` ?
stdout: N

stdin: Next variant up: `T1L`
stdout: N

stdin: Same question for `M17T` please.
stdout: Y

stdin: Another: `S19K`
stdout: Y

stdin: // query: `E15H`
stdout: N

stdin: Also need `V2W` , thanks.
stdout: N

stdin: What do you get for `Y11V` ?
stdout: Y

stdin: Here is the next variant: `K5I`
stdout: N

stdin: Cool, now `P14F`
stdout: N

stdin: Another variant to look at: `M17A`
stdout: Y

stdin: Now consider `K24Y` and answer again.
stdout: N

stdin: Record: `K24H`
stdout: N

stdin: Quick one: `S13A`
stdout: Y

stdin: Same lookup for `K10Y` , please.
stdout: N

stdin: Now try `K5Q` .
stdout: Y

stdin: Note, next up: `T1I`
stdout: N

stdin: Repeat with `L21N`
stdout: Y

stdin: What about `P14T` ?
stdout: N

stdin: Please do the same for `T1M` as well.
stdout: N

stdin: Likewise for `G23M` ?
stdout: N

stdin: Same question for `T1Q` please.
stdout: Y

stdin: Try this variant next: `L9R`
stdout: Y

stdin: Further, for `L21S` ?
stdout: Y

stdin: What would you report for `Y11Q` ?
stdout: Y

stdin: Let us now turn to `A3C`
stdout: N

stdin: Then `G4L` ?
stdout: Y
